tested on: sugar beet; assay: Test B pre/postemergence sugar beet; type: in vivo, Beta vulgaris; details: Preemergence, Rate 62 g/ha; scale of 0 to 10 where 0 is no effect and 10 is complete control
experimental.readout: Plant response rating, Sugarbeets

compound	data.value
COCC(OC)n1c(=O)on(C(=O)N(c2ccc(F)cc2)C(C)C)c1=O (centres unmarked)	0
CCOC(=O)C=C(Cn1c(=O)on(C(=O)N(c2ccc(F)cc2F)C(C)C)c1=O)OCC	0
CC(C)N(C(=O)n1oc(=O)n(CCC2OCCO2)c1=O)c1ccc(Cl)cc1	0
CC(C)N(C(=O)n1oc(=O)n(C(C)C(=O)N(C)C)c1=O)c1ccc(Cl)cc1 (centres unmarked)	0
CC(C)N(C(=O)n1oc(=O)n(CC2=NOCCC2)c1=O)c1ccc(Cl)cc1	0
